Data provenance: PubChem BioAssay (NCATS)

- experiment: Quantitative highthroughput screen to assess conditional lethalithy of SEM cells grown in Human Plasma-Like Medium with dialyzed fetal bovine serum (HPLM+ds) (AID 1963882); note: nearly all actives have a fitted effect of over 35% in size; note: potency is the fitted concentration of half-maximal effect
- experimental context: SEM B-ALL cells in HPLM+ds, CellTiter-Glo viability, 48 h; series mostly up to 45.8 µM
Records with an inconclusive call do not appear. Active and inactive are the calls of the source. Calls come from the whole dose curve; as a rule, active = well fitted cell-killing curve with a large enough effect; inconclusive = small, poorly fitted or top-dose-only effect, or effect the other way; inactive = no such curve, though single readings can be large or run the other way.
assay metric: Potency

compound: O=c1[nH]c(=O)n([C@H]2C[C@@H](O)[C@@H](CO)O2)cc1I
val: 7.43 µM (active)
//
compound: Nc1ccccc1NC(=O)c1ccc(CNc2nccc(-c3cccnc3)n2)cc1
val: 0.743 µM (active)
//
compound: CC(C)(C)c1cc(C(=O)O)c(NC(=O)Nc2ccc3[nH]ncc3c2)s1
val: inactive
//
compound: c1ccc([C@H]2CN3CCSC3=N2)cc1
val: inactive
//
compound: CC(=O)[C@H]1CC[C@H]2[C@@H]3CC=C4C[C@@H](O)CC[C@]4(C)[C@H]3CC[C@]12C
val: inactive
//
compound: CC(C(=O)O)c1ccc(-c2ccccc2)c(F)c1 (stereo not drawn)
val: 14.8 µM (active)
//
compound: COc1ccc(CCN2CCN(CCCc3ccccc3)CC2)cc1OC
val: inactive
//
compound: CCN(CC)CCCCNc1ncc2c(n1)N(C)C(=O)N(c1c(Cl)c(OC)cc(OC)c1Cl)C2
val: 14.8 µM (active)

---

- experiment: Viability qHTS for spleen associated tyrosine kinase inhibitor (SYKi) drug resistant MV4-11 cells (AID 1963824); note: nearly all actives have a fitted effect of over 35% in size; note: potency is the fitted concentration of half-maximal effect
- experimental context: SYKi-resistant MV4-11 viability, CellTiter-Glo, 72 h; series mostly up to 45 µM
Results filed as inconclusive are left out. Active and inactive are the calls of the source. Calls follow the shape of the dose curve; as a rule, active = well fitted cell-killing curve with a large enough effect; inconclusive = small, poorly fitted or top-dose-only effect, or effect the other way; inactive = no such curve, though single readings can be large or run the other way.

molecule: CCC[C@@H]1C[C@@H](C(=O)N[C@@H]([C@H]2O[C@H](SC)[C@H](OP(=O)(O)O)[C@@H](O)[C@H]2O)[C@H](C)Cl)N(C)C1
Potency: inactive
//
molecule: CC1(C)CN(C(=O)c2ccc(-c3cccc4nc(NC(=O)C5CC5)nn34)cc2)C1
Potency: 16.4 µM (active)
//
molecule: O=C(O)c1cccc(CN2C(=O)/C(=C(\c3ccccc3)c3ccc(Cl)cc3)c3ccccc32)c1
Potency: 20.6 µM (active)
//
molecule: O=C(c1ccc(C(=O)N2CCC(N3CCCC3)CC2)c(Nc2ccccc2)c1)N1CCC(N2CCCC2)CC1
Potency: inactive
//
molecule: CCOc1ccc2ccccc2c1C(=O)N[C@@H]1C(=O)N2[C@@H]1SC(C)(C)[C@@H]2C(=O)O
Potency: inactive
//
molecule: O=P(O)(O)OCC(O)CO (stereo not given)
Potency: inactive
//
molecule: CCCCS(=O)(=O)N[C@@H](Cc1ccc(OCCCCC2CCNCC2)cc1)C(=O)O
Potency: inactive
//
molecule: CN(C)CC/C=C1/c2ccccc2COc2ccc(CC(=O)O)cc21
Potency: inactive
//
molecule: CC1=CC(=O)[C@@]2(C(C)C)C[C@@H]12
Potency: 13 µM (active)
//
molecule: COc1cc(O)cc(O)c1
Potency: inactive

---

- experiment: Cellular viability qHTS for adrenocortical cancer (ACC) cell line NCI-H295R (AID 1963990); note: nearly all actives have a fitted effect of over 60% in size
- experimental context: CellTiter-Glo ATP luminescence, 48 h; series mostly up to 46.1 µM
Inconclusive results are not listed. Active and inactive are the calls of the source. Calls come from the whole dose curve; as a rule, active = well fitted cell-killing curve with a large enough effect; inconclusive = small, poorly fitted or top-dose-only effect; inactive = flat fitted curve, though single readings scatter.
Possible outcomes: 1 (yes) for active, 0 (no) for inactive

molecule: Nc1nnnn1-c1ccccc1
label: 0 (no)

molecule: CNC1(C)C2CCC(C2)C1(C)C (stereo not drawn)
label: 0 (no)

molecule: O=C(O)c1ccccc1C(=O)Nc1ccc(S(=O)(=O)Nc2nccs2)cc1
label: 0 (no)

molecule: CCCCNc1ccc(C(=O)OCCN(CC)CC)cc1
label: 0 (no)

molecule: O=C(O)c1cc(O)c(O)c(O)c1
label: 0 (no)

molecule: C[C@H]1O[C@@H](O[C@H]2[C@@H](O)C[C@H](O[C@H]3[C@@H](O)C[C@H](O[C@H]4CC[C@@]5(C)[C@H](CC[C@@H]6[C@@H]5C[C@@H](O)[C@]5(C)[C@@H](C7=CC(=O)OC7)CC[C@]65O)C4)O[C@@H]3C)O[C@@H]2C)C[C@H](O)[C@@H]1O
label: 1 (yes)

molecule: C[C@H]1c2cccc(O)c2C(O)=C2C(=O)[C@]3(O)C(O)=C(C(N)=O)C(=O)[C@@H](N(C)C)[C@@H]3[C@@H](O)[C@@H]21
label: 0 (no)

molecule: CCOC(=O)C(O)c1ccccc1 (stereo not drawn)
label: 0 (no)

molecule: Cc1cc(O)c2c(c1)C(=O)c1cc(O)cc(O)c1C2=O
label: 0 (no)

molecule: NNC(=O)c1ccncc1
label: 0 (no)

molecule: Cc1ccc2c(=O)c3cccc(CC(=O)O)c3oc2c1C
label: 0 (no)

molecule: N/C(=N\N=C\c1ccc(Cl)cc1)N/N=C/c1ccc(Cl)cc1
label: 0 (no)

molecule: CC[C@@]1([C@@H]2O[C@@H]([C@H]3O[C@@](O)(CO)[C@H](C)C[C@H]3C)C[C@H]2C)CC[C@H]([C@]2(C)CC[C@]3(C[C@H](O)[C@@H](C)[C@@H]([C@@H](C)[C@@H](OC)[C@H](C)C(=O)O)O3)O2)O1
label: 1 (yes)

---

- experiment: Viability qHTS for spleen associated tyrosine kinase inhibitor (SYKi) naive MV4-11 cells (AID 1963823); note: nearly all actives have a fitted effect of over 40% in size; note: potency is the fitted concentration of half-maximal effect
- experimental context: MV4-11 AML viability, CellTiter-Glo luminescence, 72 h; series mostly up to 45 µM
- Description: Department of Medicine, Hematology/Oncology University Hospital Frankfurt, Germany. Trials have shown promising clinical activity of the selective SYK inhibitor entospletinib in patients with high expressing HOXA9/MEIS1 acute leukemias. […] 7; Detection; Luminescence; ViewLux plate reader (PerkinElmer). […] 1. Quantitative high-throughput screening (qHTS) of small molecule compounds was conducted on naive SYKi MV4-11 cell line. […] 7. Luminescence was measured on a ViewLux plate reader (PerkinElmer).
Records with an inconclusive call do not appear. Calls of active or inactive are those of the source. The call rests on the fitted dose curve; in most records, active means well fitted cell-killing curve with a large enough effect; inconclusive means small, poorly fitted or top-dose-only effect, or effect the other way; inactive means no such curve, though single readings can be large or run the other way.

compound: Cc1cn(-c2cc(NC(=O)c3ccc(C)c(Nc4nccc(-c5cnccn5)n4)c3)cc(C(F)(F)F)c2)cn1
Potency: inactive
//
compound: O=C1CCC(N2C(=O)c3ccccc3C2=O)C(=O)N1 (configuration not stated)
Potency: inactive
//
compound: CCOc1ncc(S(=O)(=O)N2CCN(CC)CC2)cc1-c1nc2c(CC)n(CCOC)nc2c(=O)[nH]1
Potency: inactive
//
compound: CN1CCOC(c2ccccc2)c2ccccc2C1 (configuration not stated)
Potency: inactive
//
compound: CC1(C)CCC[C@@]2(C)[C@H]1[C@H](O)C=C1COC(=O)[C@@]12O
Potency: inactive
//
compound: CC(C)c1cc(C(C)C)c(CC(=O)NS(=O)(=O)Oc2c(C(C)C)cccc2C(C)C)c(C(C)C)c1
Potency: 11.6 µM (active)
//
compound: CC(C)(O)c1ccn2c(-c3ccc(F)c(-c4ccc(F)cc4C#N)c3)cnc2c1F
Potency: 9.2 µM (active)
//
compound: CN(C)CCNC(=O)NC[C@H]1CC[C@@H]2[C@H](O1)c1cc(C(F)(F)F)ccc1N[C@H]2c1ccccc1
Potency: 0.148 µM (active)
//
compound: Cc1cc(N2CCN(C(=O)Oc3ccc(-c4ccccc4)cn3)CC2)c2ccccc2n1
Potency: 6.51 µM (active)
//
compound: O=C(O)c1cc(=O)c2ccccc2o1
Potency: inactive
//
compound: Cc1ccc(-c2ncc(Cl)cc2-c2ccc(S(C)(=O)=O)cc2)cn1
Potency: inactive
//
compound: C[C@@H]1C(=O)OC2[C@H](O)[C@]34[C@H]5C[C@@H](C(C)(C)C)[C@]36[C@@H](OC(=O)[C@@H]6O)O[C@@]4(C(=O)O5)[C@]21O (some centres not stated)
Potency: inactive

---

- experiment: Quantitative highthroughput screen to assess conditional lethalithy of SEM cells grown in Human Plasma-Like Medium with dialyzed fetal bovine serum (HPLM+ds) (AID 1963882); note: nearly all actives have a fitted effect of over 35% in size
- experimental context: SEM B-ALL cells in HPLM+ds, CellTiter-Glo viability, 48 h; series mostly up to 45.8 µM
Inconclusive results are not listed. Activity calls are given as the source filed them. The call rests on the fitted dose curve; in most records, active means well fitted cell-killing curve with a large enough effect; inconclusive means small, poorly fitted or top-dose-only effect, or effect the other way; inactive means no such curve, though single readings can be large or run the other way.
Classes used: true (active), false (inactive)

structure smiles: CCC(=C(c1ccc(O)cc1)c1ccc(OCCNC)cc1)c1ccccc1
label: true
--
structure smiles: CC(C)c1c(C(=O)Nc2ccccc2)c(-c2ccccc2)c(-c2ccc(F)cc2)n1CC[C@H](O)C[C@@H](O)CC(=O)O
label: false
--
structure smiles: O=C1CCCC(=O)C1C(=O)c1ccc(C(F)(F)F)cc1[N+](=O)[O-]
label: false

---

- experiment: Cellular viability qHTS for adrenocortical cancer (ACC) cell line SW-13 (AID 1963989);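 note: cells grown in serum-free medium with ITS supplement; % is set by controls: 0 for no effect and ±100 for the full control effect; nearly all actives have a fitted effect of over 65% in size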
- experimental context: SW-13 ACC cells viability, CellTiter-Glo, 48 h; hits give low values
Results filed as inconclusive are left out.

compound: NC(=O)CC[C@@H](N)C(=O)O
activity (max response) / %: 12.6

compound: CC1CC(=O)NN=C1c1ccc(NCC(C)(C)NCC(O)COc2cc(Cl)ccc2C#N)cc1 (configuration not stated)
activity (max response) / %: -8.94

compound: C=CCCCCCCCCC(=O)O
activity (max response) / %: 9.7

compound: O=c1cc[nH]c(=O)[nH]1
activity (max response) / %: 7.94

compound: COC1CCC(C(=O)c2ccc3nc4c(cc3c2)CCCO4)CC1 (configuration not stated)
activity (max response) / %: 3.89

compound: COC(=O)C[C@](O)(CCCC(C)(C)O)C(=O)O[C@@H]1C(OC)=C[C@]23CCCN2CCc2cc4c(cc2[C@H]13)OCO4
activity (max response) / %: -15.2

compound: C[C@]12CCC(=O)C=C1CC[C@@H]1[C@@H]2[C@@H](O)C[C@@]2(C)[C@H]1CC[C@]2(O)C(=O)COC(=O)CCC(=O)O
activity (max response) / %: 3.9
